Where do the numbers come from? From paper PMC2756588.

target: Bem1-1, P29366; assay: SPOT array; details: median of control spots 4282
Sequence (P29366 55-141): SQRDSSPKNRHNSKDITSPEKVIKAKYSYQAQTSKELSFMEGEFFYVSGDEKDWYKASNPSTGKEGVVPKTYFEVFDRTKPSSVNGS
observable: SPOT intensity

GERSRPLVISILSSA :: 0
QPWTDQFEKLEKEVS :: 0

a = VGFRLALKFPSRITG
b = QQEQNTPPLPPKPKS
Please state the entry with greater SPOT intensity among a and b . // caller expects the label of the chosen entry
b
